- test system: T1, TNFR1 (Homo sapiens, UniProt P19438)
- T1 chain: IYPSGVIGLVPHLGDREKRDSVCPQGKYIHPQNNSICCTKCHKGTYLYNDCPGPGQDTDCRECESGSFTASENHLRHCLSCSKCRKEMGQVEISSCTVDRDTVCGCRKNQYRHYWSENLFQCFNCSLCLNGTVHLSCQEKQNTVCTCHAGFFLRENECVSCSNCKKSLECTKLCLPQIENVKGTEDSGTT
- protocol notes: yeast display SC50
recorded metric: apparent Kd (screen) (nM)

Some binders with recorded apparent Kd (screen):
INSERT INTO assay_data (binder, experimental_result) VALUES
  ('Y22M (designed binder) MTLQELLREEALRRAEAEAFRMALELLAEKFPEQKEYLLDLAEEIESQIRSLSGVDVEDVRKFLDKEWAWVKELLAEHPAELAEVEAARAARLAELRAEVEAKVAA', 0.653),
  ('R8K (designed binder) MTLQELLKEEALRRAEAEAFRYALELLAEKFPEQKEYLLDLAEEIESQIRSLSGVDVEDVRKFLDKEWAWVKELLAEHPAELAEVEAARAARLAELRAEVEAKVAA', 0.539),
  ('L75E (designed binder) MTLQELLREEALRRAEAEAFRYALELLAEKFPEQKEYLLDLAEEIESQIRSLSGVDVEDVRKFLDKEWAWVKELEAEHPAELAEVEAARAARLAELRAEVEAKVAA', 0.653),
  ('W68G (designed binder) MTLQELLREEALRRAEAEAFRYALELLAEKFPEQKEYLLDLAEEIESQIRSLSGVDVEDVRKFLDKEGAWVKELLAEHPAELAEVEAARAARLAELRAEVEAKVAA', 0.718);

[P] S51A (designed binder) MTLQELLREEALRRAEAEAFRYALELLAEKFPEQKEYLLDLAEEIESQIRALSGVDVEDVRKFLDKEWAWVKELLAEHPAELAEVEAARAARLAELRAEVEAKVAA
[Q] E84F (designed binder) MTLQELLREEALRRAEAEAFRYALELLAEKFPEQKEYLLDLAEEIESQIRSLSGVDVEDVRKFLDKEWAWVKELLAEHPAELAFVEAARAARLAELRAEVEAKVAA
[R] E44V (designed binder) MTLQELLREEALRRAEAEAFRYALELLAEKFPEQKEYLLDLAEVIESQIRSLSGVDVEDVRKFLDKEWAWVKELLAEHPAELAEVEAARAARLAELRAEVEAKVAA
[S] Q48Y (designed binder) MTLQELLREEALRRAEAEAFRYALELLAEKFPEQKEYLLDLAEEIESYIRSLSGVDVEDVRKFLDKEWAWVKELLAEHPAELAEVEAARAARLAELRAEVEAKVAA
# ascending order, key=apparent Kd (screen) I would appreciate it if you listed the labels in the requested order.
Q, P, R, S

Data origin: paper PMC12416549
